- ASSAY_INFO: Hepatic microsome stability, mouse
- Format: in vitro ADME
- CONDITIONS: compound at 1 μM, 60 min
READOUT: Hepatic microsome stability, mouse (% remaining)
Report only the number, with the unit % remaining understood.

Some entries whose results are on file:
CCOc1ccc(-c2nc(CSCC(=O)NC3CC3)c(C)o2)cc1 ... 0
CNC(=O)CCc1nc(-c2ccc(C(C)(C)C)cc2)no1 ... 4.9
C/C=C/Cn1c(SCCCc2ccccc2)nc2c1c(=O)[nH]c(=O)n2C ... 0.86

Hello, please tell me recorded Hepatic microsome stability, mouse (% remaining) for this one: Cc1cc2nc(NCCCO)n(CC(=O)c3cc(C(C)(C)C)c(O)c(C(C)(C)C)c3)c2cc1C 0.5

Report Hepatic microsome stability, mouse (% remaining) for Cc1ccc(S(=O)(=O)n2c(N)nc3ccccc32)cc1 0.8

###

- ASSAY_INFO: Aqueous solubility
- Type: physicochemical
- CONDITIONS: aqueous medium, aqueous buffer; pH 5.0; read-out: Aqueous solubility pH 5.0
Measured solubility by item
The response must be a number in µM with no trailing unit.

Some solved cases for reference:
C/C=C/Cn1c(SCCCc2ccccc2)nc2c1c(=O)[nH]c(=O)n2C [Probe 17] ... 1.5
CNC(=O)CCc1nc(-c2ccc(C(C)(C)C)cc2)no1 [Probe 8] ... 92

State, in one line, measured solubility of CCOc1ccc(-c2nc(CSCC(=O)NC3CC3)c(C)o2)cc1 [Probe 12] 112

###

- ASSAY_INFO: Hepatic microsome stability, human
- Format: in vitro ADME
- CONDITIONS: human, compound at 1 μM, 60 min
Hepatic microsome stability, human (% remaining) for assorted compounds
Numeric only. Scale: % remaining

Please review the following examples before continuing.
CNC(=O)CCc1nc(-c2ccc(C(C)(C)C)cc2)no1 ... 100
Cc1cc2nc(NCCCO)n(CC(=O)c3cc(C(C)(C)C)c(O)c(C(C)(C)C)c3)c2cc1C ... 26
CCOc1ccc(-c2nc(CSCC(=O)NC3CC3)c(C)o2)cc1 ... 22.7
Cc1ccc(S(=O)(=O)n2c(N)nc3ccccc32)cc1 ... 41.8

# next compound below
Look up and state reported Hepatic microsome stability, human (% remaining) for C/C=C/Cn1c(SCCCc2ccccc2)nc2c1c(=O)[nH]c(=O)n2C 8.8

###

solubility overview
- ASSAY_INFO: Aqueous solubility
- Format: physicochemical
- CONDITIONS: aqueous medium, pH 7.4, aqueous buffer; read-out: Aqueous solubility pH 7.4
Answer format: numeric, µM implied, no suffix.

For orientation, consider the following solved cases.
CCOc1ccc(-c2nc(CSCC(=O)NC3CC3)c(C)o2)cc1 [Probe 12] ... 160
C/C=C/Cn1c(SCCCc2ccccc2)nc2c1c(=O)[nH]c(=O)n2C [Probe 17] ... 1.7

Provide only the value of recorded solubility for CNC(=O)CCc1nc(-c2ccc(C(C)(C)C)cc2)no1 [Probe 8] 103

###

- ASSAY_INFO: Aqueous solubility
- Format: physicochemical
- CONDITIONS: aqueous medium, pH 6.2, aqueous buffer; read-out: Aqueous solubility pH 6.2
READOUT: solubility (µM)
// note: answer is a bare numeric in µM

CNC(=O)CCc1nc(-c2ccc(C(C)(C)C)cc2)no1 ... 101
Cc1cc2nc(NCCCO)n(CC(=O)c3cc(C(C)(C)C)c(O)c(C(C)(C)C)c3)c2cc1C ... 1.1
C/C=C/Cn1c(SCCCc2ccccc2)nc2c1c(=O)[nH]c(=O)n2C ... 1.8

Would you kindly look at the next entry?
Dear colleague, please send me the reported solubility for CCOc1ccc(-c2nc(CSCC(=O)NC3CC3)c(C)o2)cc1 when you can. 133

Source of measurements: paper PMC3678512
